Sourced from the supplement of paper PMC10567573

B1: RHOBTB2 (parent)
chain: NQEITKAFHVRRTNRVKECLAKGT

# Variants of: B1
# Procedure text: protein stability index of a GFP-peptide fusion (GPS, HEK-293T) (PSI 1-6); higher = more stable;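 also: lentivirally expressed fusions sorted by FACS into six bins by GFP to DsRed ratio, PSI derived from sequencing read proportions per bin multiplied by bin number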
# Test settings: c terminus: a fixed tail appended
Mark no (0) for protein stability index values under 3, and yes (1) for everything at or above.

Problem: Could you please find out whether "C19F" has protein stability index that meets 3 or exceeds it?
Result: no (0)

Problem: Could you please find out whether "R11T" has protein stability index that meets 3 or exceeds it?
Result: yes (1)

Problem: Could you please find out whether "A7V" has protein stability index that meets 3 or exceeds it?
Result: no (0)

Problem: Could you please find out whether "I4E" has protein stability index that meets 3 or exceeds it?
Result: yes (1)

Problem: Could you please find out whether "V10N" has protein stability index that meets 3 or exceeds it?
Result: yes (1)

Problem: Could you please find out whether "N14F" has protein stability index that meets 3 or exceeds it?
Result: no (0)

Problem: Could you please find out whether "K17V" has protein stability index that meets 3 or exceeds it?
Result: no (0)
